molecular target: SorC (Penicillium rubens, UniProt B6HN76, R201A); construct: monomer; test: microscale thermophoresis
Sequence (B6HN76 whole entry R201A): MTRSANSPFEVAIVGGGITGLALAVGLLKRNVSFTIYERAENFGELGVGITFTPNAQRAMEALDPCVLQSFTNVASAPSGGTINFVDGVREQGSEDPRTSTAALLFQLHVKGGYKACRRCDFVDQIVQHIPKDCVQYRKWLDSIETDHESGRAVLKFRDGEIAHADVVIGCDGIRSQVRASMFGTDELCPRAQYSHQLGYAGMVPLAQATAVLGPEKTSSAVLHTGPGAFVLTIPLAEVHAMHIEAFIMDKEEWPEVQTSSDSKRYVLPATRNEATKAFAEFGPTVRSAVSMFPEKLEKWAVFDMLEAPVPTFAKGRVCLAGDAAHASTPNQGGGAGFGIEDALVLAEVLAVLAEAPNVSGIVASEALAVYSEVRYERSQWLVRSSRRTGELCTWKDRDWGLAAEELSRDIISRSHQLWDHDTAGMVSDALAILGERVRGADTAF
observed-property: Kd (µM)

> print(dat)
                  structure.notation                               target.desc  recorded.number
1  C/C=C/C=C/C(=O)c1cc(C)c(O)c(C)c1O  SorC (Penicillium rubens, UniProt B6HN76, R201A)             12.6

###

biological target: SorC (Penicillium rubens, UniProt B6HN76)
Sequence (B6HN76 whole entry): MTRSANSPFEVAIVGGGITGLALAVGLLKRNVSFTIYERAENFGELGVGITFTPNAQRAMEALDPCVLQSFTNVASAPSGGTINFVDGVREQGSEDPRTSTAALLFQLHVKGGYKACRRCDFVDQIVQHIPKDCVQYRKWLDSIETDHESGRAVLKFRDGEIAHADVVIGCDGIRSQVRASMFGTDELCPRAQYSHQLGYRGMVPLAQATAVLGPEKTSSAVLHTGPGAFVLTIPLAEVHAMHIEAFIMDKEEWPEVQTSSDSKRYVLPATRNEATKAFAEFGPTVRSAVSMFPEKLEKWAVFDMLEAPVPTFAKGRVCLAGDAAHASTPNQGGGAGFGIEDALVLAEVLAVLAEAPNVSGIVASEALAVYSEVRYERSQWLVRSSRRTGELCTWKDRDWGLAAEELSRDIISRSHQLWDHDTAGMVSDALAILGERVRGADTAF
observed-property: Kd (nM)

> print(dat)
                  structure.notation                               target.desc  recorded.number
1  C/C=C/C=C/C(=O)c1cc(C)c(O)c(C)c1O  SorC (Penicillium rubens, UniProt B6HN76)              940

###

target: SorD (Penicillium rubens, UniProt B6HNK6); construct: C-terminal His6 tag, endogenous signal peptide (residues 5-22 partly seen in structure), secreted from Aspergillus niger; N-glycosylated; ~50 kDa theoretical, 61 kDa measured; monomer; FAD covalent at His78; assay: microscale thermophoresis
Sequence (B6HNK6 whole entry, the tested form may be a part): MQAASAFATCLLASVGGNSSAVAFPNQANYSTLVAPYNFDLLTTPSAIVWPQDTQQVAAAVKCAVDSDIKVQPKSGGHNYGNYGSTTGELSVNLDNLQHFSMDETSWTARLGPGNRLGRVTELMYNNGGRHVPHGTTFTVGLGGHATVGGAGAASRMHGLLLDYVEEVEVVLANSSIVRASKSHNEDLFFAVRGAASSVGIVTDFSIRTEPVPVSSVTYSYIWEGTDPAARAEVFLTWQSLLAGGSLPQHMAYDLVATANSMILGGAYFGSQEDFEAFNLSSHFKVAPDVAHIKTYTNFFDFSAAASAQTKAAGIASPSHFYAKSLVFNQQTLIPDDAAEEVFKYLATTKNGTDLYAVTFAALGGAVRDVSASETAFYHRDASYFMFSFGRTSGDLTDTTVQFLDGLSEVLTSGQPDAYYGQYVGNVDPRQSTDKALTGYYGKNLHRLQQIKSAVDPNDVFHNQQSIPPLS
observed-property: Kd (nM)

> print(dat)
                  structure.notation  recorded.number
1  C/C=C/C=C/C(=O)c1cc(C)c(O)c(C)c1O             1200
